These data points were gathered from patent US20240408169A1.

IC50 listing for selected compounds.
# target-entity: CyclinE1/CDK2 (Homo sapiens, UniProt P24864)
# Construct: purchased Eurofins, discovery 14-475
# procedure-text: Fluorescence Polarization (FP) competitive binding assay, Cyclin E1/Cdk2
# condition-label: 10 nM Cyclin E1/Cdk2, 2 nM FAM probe; average of 2-3 independent experiments; read-out: Cyclin E FP IC50
*1 amine or outer side, *2 acyl side, *3 side chain or, on linkers, in order; H or OH if unused. Where a SMILES comes first, the peptide text is derived from it. Bridges are numbered along the chain shown (N, C = ends). [ ]: non-standard residue; d: D form. The star is where a group is joined. NMehhhLys(Me) = CN([C@@H](CCCCCCCN(C)[*:3])C(=O)[*:2])[*:1]; NMe(hhhLys) = CN([C@@H](CCCCCCCN[*:3])C(=O)[*:2])[*:1]; X33 = CN([C@@H](Cc1cc(Cl)cc2c1OCCO2)C(=O)[*:2])[*:1]; cBuCO(3,3-F2-1-CF3) = O=C(C1(C(F)(F)F)CC(F)(F)C1)*; NMePhe(2,5-Cl2) = CN[C@@H](Cc1cc(Cl)ccc1Cl)C(=O)O; Pro(trans-4-F) = O=C(O)[C@@H]1C[C@@H](F)CN1; X155 = C[C@@](O)(C(=O)*)C(F)(F)F; Gly(cPr) = N[C@H](C(=O)O)C1CC1
Answer with the number, then the unit.

CC(C)C[C@@H]1NC(=O)[C@@H](N(C)C(=O)[C@@H](NC(=O)[C@@H]2C[C@@H](F)CN2C(=O)C2(C(F)(F)F)CC(F)(F)C2)C2CC2)CCCCCCCN(C)C(=O)[C@H](Cc2cc(Cl)cc3c2OCCO3)N(C)C1=O [Example 321] ({cBuCO(3,3-F2-1-CF3)}-[Pro(trans-4-F)][Gly(cPr)][NMehhhLys(Me)]L[X33]; lactam 3-C); 100 nM
Cc1nnc(-c2ccc(Cl)cc2C[C@H]2C(=O)NCCCCC=CC[C@H](N(C)C(=O)[C@@H](NC(=O)[C@@H]3C[C@@H](F)CN3C(=O)C3(C(F)(F)F)CC(F)(F)C3)C3CC3)C(=O)N[C@@H](CC(C)C)C(=O)N2C)o1 (single isomer, unassigned) [Example 118-P1]; 740 nM

// switching to the query compound
Ask: Can you look up the measured IC50 of CC(C)C[C@@H]1NC(=O)[C@@H](N(C)C(=O)[C@@H](NC(=O)[C@@H]2C[C@@H](F)CN2C(=O)[C@@](C)(O)C(F)(F)F)C2CC2)CCCCCCCNC(=O)[C@H](Cc2cc(Cl)ccc2Cl)N(C)C1=O [Example 10] (X155-[Pro(trans-4-F)][Gly(cPr)][NMe(hhhLys)]L[NMePhe(2,5-Cl2)]; lactam 3-C) for me?
Reply: 120 nM

----------
# target-entity: CyclinE1/CDK2 (Homo sapiens)
# Construct: purchased Eurofins, discovery 14-475
# procedure-text: Fluorescence Polarization (FP) competitive binding assay, Cyclin E1/Cdk2;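 further: readings taken after two-hour equilibration at room temperature in HEPES buffer with NaCl, DTT, NP-40 and BSA, IC50 fitted from eight-concentration serial dilution series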
# condition-label: 10 nM Cyclin E1/Cdk2, 2 nM FAM probe; average of 2-3 independent experiments; read-out: Cyclin E FP IC50
*1 amine or outer side, *2 acyl side, *3 side chain or, on linkers, in order; H or OH if unused. Where a SMILES comes first, the peptide text is derived from it. Bridges are numbered along the chain shown (N, C = ends). [ ]: non-standard residue; d: D form. The star is where a group is joined. X63 = CC(C)N1CCN(c2ccc(-c3ccc(Cl)cc3C[C@@H](C(=O)[*:2])N(C)[*:1])cc2F)CC1; NMehhhLys(Me) = CN([C@@H](CCCCCCCN(C)[*:3])C(=O)[*:2])[*:1]; cBuCO(3,3-F2-1-CF3) = O=C(C1(C(F)(F)F)CC(F)(F)C1)*; Pro(trans-4-F) = O=C(O)[C@@H]1C[C@@H](F)CN1; Gly(cPr) = N[C@H](C(=O)O)C1CC1
IC50 listing for selected compounds.
Supply the numeric figure in nM, leaving out any unit text.

CC(C)C[C@@H]1NC(=O)[C@@H](N(C)C(=O)[C@@H](NC(=O)[C@@H]2C[C@@H](F)CN2C(=O)C2(C(F)(F)F)CCC2)C2CC2)CC=CCCCCN(C)C(=O)[C@H](Cc2cc(Cl)ccc2-c2cnn(C3CC3)c2)N(C)C1=O; 300
CC(C)C[C@@H]1NC(=O)[C@@H](N(C)C(=O)[C@@H](NC(=O)[C@@H]2C[C@@H](F)CN2C(=O)C2(C(F)(F)F)CC3(CCC3)C2)C2CC2)CC=CCCCCNC(=O)[C@H](Cc2cc(Cl)ccc2Cl)N(C)C1=O (single isomer, unassigned) [Example 16-P1]; 3150

// switching to the query compound
Ask: Field: IC50 (CyclinE1/CDK2 (Homo sapiens)). Entry: CC(C)C[C@@H]1NC(=O)[C@@H](N(C)C(=O)[C@@H](NC(=O)[C@@H]2C[C@@H](F)CN2C(=O)C2(C(F)(F)F)CC(F)(F)C2)C2CC2)CCCCCCCN(C)C(=O)[C@H](Cc2cc(Cl)ccc2-c2ccc(N3CCN(C(C)C)CC3)c(F)c2)N(C)C1=O [Example 413] ({cBuCO(3,3-F2-1-CF3)}-[Pro(trans-4-F)][Gly(cPr)][NMehhhLys(Me)]L[X63]; lactam 3-C)
Reply: 1310

----------
# Tested on: NCI-H1048 cells
# procedure-text: MTT proliferation assay, NCI-H1048;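 further: Dose-response in 96-well plates over 8 or 10 concentration points, with exposure spanning 3-4 cell doublings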
# Format: cell-based
# condition-label: 5 days compound exposure, 1:3 serial dilution starting at 10 μM
*1 amine or outer side, *2 acyl side, *3 side chain or, on linkers, in order; H or OH if unused. Where a SMILES comes first, the peptide text is derived from it. Bridges are numbered along the chain shown (N, C = ends). [ ]: non-standard residue; d: D form. The star is where a group is joined. X179 = CN([C@@H](Cc1cc(Cl)ccc1-c1ccc(N2CCOCC2)c(C#N)c1)C(=O)[*:2])[*:1]; NMehhhLys(Me) = CN([C@@H](CCCCCCCN(C)[*:3])C(=O)[*:2])[*:1]; NMe(hhhLys) = CN([C@@H](CCCCCCCN[*:3])C(=O)[*:2])[*:1]; X28 = CN([C@@H](Cc1cc(Cl)cnc1OC1CCC1)C(=O)[*:2])[*:1]; cBuCO(3,3-F2-1-CF3) = O=C(C1(C(F)(F)F)CC(F)(F)C1)*; Pro(trans-4-F) = O=C(O)[C@@H]1C[C@@H](F)CN1; Gly(cPr) = N[C@H](C(=O)O)C1CC1
GI50 listing for selected compounds.
Supply the numeric figure in nM, leaving out any unit text.

Sample records with GI50:
CC(C)C[C@@H]1NC(=O)[C@@H](N(C)C(=O)[C@@H](NC(=O)[C@@H]2C[C@@H](F)CN2C(=O)C2(C(F)(F)F)CC(F)(F)C2)C2CC2)CC=CCCCCN(C)C(=O)[C@H](Cc2cc(Cl)ccc2Oc2ncccn2)N(C)C1=O; 110
CC(C)C[C@@H]1NC(=O)[C@@H](N(C)C(=O)[C@@H](NC(=O)[C@@H]2C[C@@H](F)CN2C(=O)C2(C(F)(F)F)CC(F)(F)C2)C2CC2)CCCCCCCNC(=O)[C@H](Cc2cc(Cl)cnc2OC2CCC2)N(C)C1=O [Example 142] ({cBuCO(3,3-F2-1-CF3)}-[Pro(trans-4-F)][Gly(cPr)][NMe(hhhLys)]L[X28]; lactam 3-C); 110

// switching to the query compound
Ask: Field: GI50 (NCI-H1048 cells). Entry: CC(C)C[C@@H]1NC(=O)[C@@H](N(C)C(=O)[C@@H](NC(=O)[C@@H]2C[C@@H](F)CN2C(=O)C2(C(F)(F)F)CC(F)(F)C2)C2CC2)CCCCCCCN(C)C(=O)[C@H](Cc2cc(Cl)ccc2-c2ccc(N3CCOCC3)c(C#N)c2)N(C)C1=O [Example 379] ({cBuCO(3,3-F2-1-CF3)}-[Pro(trans-4-F)][Gly(cPr)][NMehhhLys(Me)]L[X179]; lactam 3-C)
Reply: 30

----------
pIC50 listing for selected compounds.
# target-entity: CyclinB1/CDK1 (Homo sapiens)
# Construct: purchased Eurofins, discovery 14-450
# procedure-text: Fluorescence Polarization (FP) competitive binding assay, Cyclin B1/Cdk1;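 further: fluorescence polarization read after equilibration at room temperature, with IC50 taken from serially diluted dose-response curves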
# condition-label: 10 nM Cyclin B1/Cdk1, 2 nM FAM probe; average of 2-3 independent experiments; read-out: Cyclin B FP IC50
*1 amine or outer side, *2 acyl side, *3 side chain or, on linkers, in order; H or OH if unused. Where a SMILES comes first, the peptide text is derived from it. Bridges are numbered along the chain shown (N, C = ends). [ ]: non-standard residue; d: D form. The star is where a group is joined. X31 = CN1CCC(c2ccc(-c3ccc(Cl)cc3C[C@@H](C(=O)[*:2])N(C)[*:1])cc2)CC1; NMehhhLys(Me) = CN([C@@H](CCCCCCCN(C)[*:3])C(=O)[*:2])[*:1]; X159 = CN([C@@H](Cc1cc(Cl)cnc1Oc1cnn(C)c1)C(=O)[*:2])[*:1]; X163 = CN([C@@H](Cc1cc(Cl)ccc1N1CCOCC1)C(=O)[*:2])[*:1]; cBuCO(3,3-F2-1-CF3) = O=C(C1(C(F)(F)F)CC(F)(F)C1)*; Pro(trans-4-F) = O=C(O)[C@@H]1C[C@@H](F)CN1; Gly(cPr) = N[C@H](C(=O)O)C1CC1
For clarity, pIC50 is expressed as the negative log10 of concentration in mol/L.

CC(C)C[C@@H]1NC(=O)[C@@H](N(C)C(=O)[C@@H](NC(=O)[C@@H]2C[C@@H](F)CN2C(=O)C2(C(F)(F)F)CC(F)(F)C2)C2CC2)CCCCCCCN(C)C(=O)[C@H](Cc2cc(Cl)ccc2N2CCOCC2)N(C)C1=O [Example 319] ({cBuCO(3,3-F2-1-CF3)}-[Pro(trans-4-F)][Gly(cPr)][NMehhhLys(Me)]L[X163]; lactam 3-C); 7.70
CC(C)C[C@@H]1NC(=O)[C@@H](N(C)C(=O)[C@@H](NC(=O)[C@@H]2C[C@@H](F)CN2C(=O)C2(C(F)(F)F)CC(F)(F)C2)C2CC2)CCCCCCCN(C)C(=O)[C@H](Cc2cc(Cl)cnc2Oc2cnn(C)c2)N(C)C1=O [Example 323] ({cBuCO(3,3-F2-1-CF3)}-[Pro(trans-4-F)][Gly(cPr)][NMehhhLys(Me)]L[X159]; lactam 3-C); 7.70

Ask: Can you look up the measured pIC50 of CC(C)C[C@@H]1NC(=O)[C@@H](N(C)C(=O)[C@@H](NC(=O)[C@@H]2C[C@@H](F)CN2C(=O)C2(C(F)(F)F)CC(F)(F)C2)C2CC2)CCCCCCCN(C)C(=O)[C@H](Cc2cc(Cl)ccc2-c2ccc(C3CCN(C)CC3)cc2)N(C)C1=O [Example 358] ({cBuCO(3,3-F2-1-CF3)}-[Pro(trans-4-F)][Gly(cPr)][NMehhhLys(Me)]L[X31]; lactam 3-C) for me?
Reply: 7.70
